B1: SPSB4 (parent)
chain: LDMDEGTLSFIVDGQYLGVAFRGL

variants of: B1; assay: protein stability index of a GFP-peptide fusion (GPS, HEK-293T) (PSI 1-6); higher = more stable; settings: c terminus: a fixed tail appended;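 note: lentivirally expressed fusions sorted by FACS into six bins by GFP to DsRed ratio, PSI derived from sequencing read proportions per bin multiplied by bin number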
Result Type: protein stability index

> print(dat)
                   ordered.residues              result.type  observed
 1   LDMDEGMLSFIVDGQYLGVAFRGL [T7M]  protein stability index      2.53
 2   LDMDEGDLSFIVDGQYLGVAFRGL [T7D]  protein stability index      2.11
 3  LDMDEGTLSFIVDGFYLGVAFRGL [Q15F]  protein stability index      2.25
 4   LDMDEGWLSFIVDGQYLGVAFRGL [T7W]  protein stability index      3.12
 5  LDMDEGTLSFIVDGQYLGMAFRGL [V19M]  protein stability index      2.32
 6  LDMDEGTLSFIVDGQYLGVAFMGL [R22M]  protein stability index      1.99
 7   LDMDEGSLSFIVDGQYLGVAFRGL [T7S]  protein stability index      3.54
 8  LDMDEGTLSFIDDGQYLGVAFRGL [V12D]  protein stability index      1.99
 9  LDMDEGTLSFIVDGQYLGSAFRGL [V19S]  protein stability index      1.66
10   LDHDEGTLSFIVDGQYLGVAFRGL [M3H]  protein stability index      2.39
11  LDMDEGTLSFIVDGQYLGLAFRGL [V19L]  protein stability index      1.94
12   MDMDEGTLSFIVDGQYLGVAFRGL [L1M]  protein stability index      2.75
13   LDMDECTLSFIVDGQYLGVAFRGL [G6C]  protein stability index      3.03
14   LDMDEGTLGFIVDGQYLGVAFRGL [S9G]  protein stability index      2.99
15   LDMDEGTESFIVDGQYLGVAFRGL [L8E]  protein stability index      1.94
16  LDMDEGTLSFIVDGQYLGVAFRAL [G23A]  protein stability index      1.31
17   LDMDEGTLQFIVDGQYLGVAFRGL [S9Q]  protein stability index      2.01
18  LDMDEGTLSFIVDGQYLGVAIRGL [F21I]  protein stability index      2.95
19  LDMDEGTLSKIVDGQYLGVAFRGL [F10K]  protein stability index      2.37
20   LDMDVGTLSFIVDGQYLGVAFRGL [E5V]  protein stability index      3.95
21  LDMDEGTLSFKVDGQYLGVAFRGL [I11K]  protein stability index      1.94
22  LDMDEGTLSFIVDGQYLMVAFRGL [G18M]  protein stability index      2.85
23  LDMDEGTLSMIVDGQYLGVAFRGL [F10M]  protein stability index      1.73
24  LDMDEGTLSFIVDGQYLGWAFRGL [V19W]  protein stability index      2.04
25   LDMDEGQLSFIVDGQYLGVAFRGL [T7Q]  protein stability index      3.36
26  LDMDEGTLSFIVDGQYLGVAVRGL [F21V]  protein stability index      2.46
27  LDMDEGTLSFIVLGQYLGVAFRGL [D13L]  protein stability index      2.94
28  LDMDEGTLSFISDGQYLGVAFRGL [V12S]  protein stability index       1.8
29  LDMDEGTLSHIVDGQYLGVAFRGL [F10H]  protein stability index      2.14
30   FDMDEGTLSFIVDGQYLGVAFRGL [L1F]  protein stability index      2.48
31  LDMDEGTLSFIVDGQYAGVAFRGL [L17A]  protein stability index      2.15
32  LDMDEGTLSFIVDGQHLGVAFRGL [Y16H]  protein stability index      2.37
33  LDMDEGTLSFIVDGQYLGVAFRIL [G23I]  protein stability index      2.48
34  LDMDEGTLSFIVDGQYLYVAFRGL [G18Y]  protein stability index      3.25
35  LDMDEGTLSFIVDGQYLGVANRGL [F21N]  protein stability index      1.98
36   LDMDEATLSFIVDGQYLGVAFRGL [G6A]  protein stability index      3.24
37   LDMDEGTLYFIVDGQYLGVAFRGL [S9Y]  protein stability index      2.89
38  LDMDEGTLSRIVDGQYLGVAFRGL [F10R]  protein stability index      2.21
39   LDMTEGTLSFIVDGQYLGVAFRGL [D4T]  protein stability index      2.45
40   LTMDEGTLSFIVDGQYLGVAFRGL [D2T]  protein stability index       3.9
